Molecular target: human purified recombinant IRAK1 (His-TEV-IRAK1 (194-712)) (Homo sapiens (Human), UniProt P51617)
Sequence (P51617 194-712): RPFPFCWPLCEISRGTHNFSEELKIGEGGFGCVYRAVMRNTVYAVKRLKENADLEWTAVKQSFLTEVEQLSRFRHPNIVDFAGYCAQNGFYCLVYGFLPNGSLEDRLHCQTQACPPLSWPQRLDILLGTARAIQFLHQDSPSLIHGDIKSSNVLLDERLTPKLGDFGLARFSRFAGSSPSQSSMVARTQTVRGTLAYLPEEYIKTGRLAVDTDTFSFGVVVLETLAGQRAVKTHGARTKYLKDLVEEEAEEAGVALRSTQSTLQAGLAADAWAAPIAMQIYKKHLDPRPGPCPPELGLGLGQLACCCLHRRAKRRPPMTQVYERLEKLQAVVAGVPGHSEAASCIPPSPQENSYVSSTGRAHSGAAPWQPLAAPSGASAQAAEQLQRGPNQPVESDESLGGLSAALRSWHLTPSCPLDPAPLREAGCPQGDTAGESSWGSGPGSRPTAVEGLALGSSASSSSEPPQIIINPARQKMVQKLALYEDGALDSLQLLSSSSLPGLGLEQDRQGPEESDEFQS
Experiment: IRAK1 enzymatic assay (ADP-Glo luminescence)
Settings: ATP 1 μM, 2 h at RT
pIC50: −log10 of the molar value.
The compounds listed here are annotated with their pIC50.

1) O=C1Nc2cn(C3CCOCC3)nc2C(=O)NCCCOc2ccc(=O)n(n2)Cc2cccc1n2 [Compound 9]; < 5.30
2) O=C1Nc2cn(C3CCOCC3)nc2C(=O)NCC(O)COc2ccc(=O)n(n2)Cc2cccc1c2 (stereo not shown) [Compound 11]; 6.00 to 7.00
3) O=C1Nc2cn(C3CCOCC3)nc2C(=O)NCCCOc2ccc(=O)n(n2)Cc2cccc1c2 [Compound 6]; 6.00 to 7.00

Reported pIC50 for Cn1cc2c(n1)C(=O)NCCOc1ccc(=O)n(n1)Cc1cccc(c1)C(=O)N2 [Compound 4] : what is it?
< 5.30

// repeat for Cn1cc2c(n1)C(=O)NCCCOc1ccc(=O)n(n1)Cc1cccc(c1)C(=O)N2 [Compound 1] and report
6.00 to 7.00

// repeat for Cc1cc2n(n1)CCc1cccc(c1)-c1ccc(=O)n(n1)Cc1cccc(c1)C(=O)N2 [Compound 15] and report
< 5.30

// repeat for Cn1cc2c(n1)C(=O)NCCn1cc(cn1)-c1ccc(=O)n(n1)Cc1cccc(c1)C(=O)N2 [Compound 2] and report
> 7.00

// repeat for Cn1cc2c(n1)C(=O)NCC(O)COc1ccc(=O)n(n1)Cc1cccc(c1)C(=O)N2 (stereo not shown) [Compound 12] and report
5.30 to 6.00

// repeat for Cn1cc2c(n1)C(=O)NCCCOc1ccc(=O)n(n1)Cc1cccc(n1)C(=O)N2 [Compound 8] and report
< 5.30

// repeat for Cn1cc2c(n1)C(=O)NCCc1cccc(c1)-c1ccc(=O)n(n1)Cc1cccc(c1)C(=O)N2 [Compound 14] and report
6.00 to 7.00

// repeat for CC(C)(C)n1cc2c(n1)C(=O)NCCCOc1ccc(=O)n(n1)Cc1cccc(c1)C(=O)N2 [Compound 7] and report
6.00 to 7.00

// repeat for Cn1cc2c(n1)C(=O)NCc1cc(ccn1)-c1ccc(=O)n(n1)Cc1cccc(c1)C(=O)N2 [Compound 13] and report
6.00 to 7.00

// repeat for Cn1cc2c(n1)C(=O)NCc1cncc(c1)-c1ccc(=O)n(n1)Cc1cccc(c1)C(=O)N2 [Compound 3] and report
6.00 to 7.00

----------
Target: human purified recombinant IRAK4 (His-TEV-IRAK4 (1-460)) (Homo sapiens (Human))
Sequence (Q9NWZ3 whole entry): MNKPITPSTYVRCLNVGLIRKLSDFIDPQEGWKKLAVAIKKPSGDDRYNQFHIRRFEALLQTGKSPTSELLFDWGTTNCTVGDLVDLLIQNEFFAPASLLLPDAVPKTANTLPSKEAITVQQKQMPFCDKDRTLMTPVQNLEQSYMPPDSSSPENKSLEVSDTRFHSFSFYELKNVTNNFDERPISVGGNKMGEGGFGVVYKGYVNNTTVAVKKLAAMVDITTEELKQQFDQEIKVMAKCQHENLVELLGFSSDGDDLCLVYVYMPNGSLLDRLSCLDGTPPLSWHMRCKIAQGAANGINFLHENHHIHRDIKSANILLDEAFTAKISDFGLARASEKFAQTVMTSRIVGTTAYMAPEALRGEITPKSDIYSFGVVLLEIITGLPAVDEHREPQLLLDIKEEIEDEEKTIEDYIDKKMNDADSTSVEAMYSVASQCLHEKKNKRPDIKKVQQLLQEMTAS
Experiment: IRAK4 enzymatic assay (ADP-Glo luminescence)
Details: ATP 2 μM, STK1-biotin peptide 300 nM, 2 h at RT
pIC50: −log10 of the molar value.
The molecules listed here are annotated with their pIC50.

1) CC(C)(C)n1cc2c(n1)C(=O)NCCCOc1ccc(=O)n(n1)Cc1cccc(n1)C(=O)N2 [Compound 10]; 5.30 to 6.00
2) Cn1cc2c(n1)C(=O)NCCCOc1ccc(=O)n(n1)Cc1cccc(n1)C(=O)N2 [Compound 8]; > 7.00
3) CC(C)(C)n1cc2c(n1)C(=O)NCCCOc1ccc(=O)n(n1)Cc1cccc(c1)C(=O)N2 [Compound 7]; > 7.00

Reported pIC50 for O=C1Nc2cn(C3CCOCC3)nc2C(=O)NCCCOc2ccc(=O)n(n2)Cc2cccc1c2 [Compound 6] : what is it?
> 7.00

// repeat for Cn1cc2c(n1)C(=O)NCCc1cccc(c1)-c1ccc(=O)n(n1)Cc1cccc(c1)C(=O)N2 [Compound 14] and report
> 7.00

// repeat for O=C1Nc2cn(C3CCOCC3)nc2C(=O)NCCCOc2ccc(=O)n(n2)Cc2cccc1n2 [Compound 9] and report
> 7.00

// repeat for Cn1cc2c(n1)C(=O)NCCOc1ccc(=O)n(n1)Cc1cccc(c1)C(=O)N2 [Compound 4] and report
< 5.30

// repeat for Cn1cc2c(n1)C(=O)NCC(O)COc1ccc(=O)n(n1)Cc1cccc(c1)C(=O)N2 (centres unmarked) [Compound 12] and report
> 7.00

----------
The molecules listed here are annotated with their IC50.
Biological target: human purified recombinant IRAK4 (His-TEV-IRAK4 (1-460)) (Homo sapiens (Human))
Assay: IRAK4 enzymatic assay (ADP-Glo luminescence)
Details: ATP 2 μM, STK1-biotin peptide 300 nM, 2 h at RT
Experimental: IRAK4 is a human purified recombinant enzyme (His-TEV-IRAK4 (1-460)). In this assay, IRAK4 hydrolyses ATP, autophosphorylates and phosphorylates a Serine/Threonine generic peptidic substrate (STK: 61ST1BLC from CisBio International). Measurement of IRAK-4 inhibition is performed in 384-well format based on a luminescence assay (ADP-Glo™ Kinase Assay from Promega). […]

Some molecules with recorded IC50:
1. Cn1cc2c(n1)C(=O)NCc1cncc(c1)-c1ccc(=O)n(n1)Cc1cccc(c1)C(=O)N2 [Compound 3]; < 100 nM
2. Cn1cc2c(n1)C(=O)NCc1cc(ccn1)-c1ccc(=O)n(n1)Cc1cccc(c1)C(=O)N2 [Compound 13]; < 100 nM
3. Cn1cc2c(n1)C(=O)NCCCOc1ccc(=O)n(n1)Cc1cccc(c1)C(=O)N2 [Compound 1]; < 100 nM
4. Cn1cc2c(n1)C(=O)NCCn1cc(cn1)-c1ccc(=O)n(n1)Cc1cccc(c1)C(=O)N2 [Compound 2]; < 100 nM

Find the measured IC50: item Cc1cc2n(n1)CCc1cccc(c1)-c1ccc(=O)n(n1)Cc1cccc(c1)C(=O)N2 [Compound 15] , target or system human purified recombinant IRAK4 (His-TEV-IRAK4 (1-460)) (Homo sapiens (Human)).
> 5000 nM

// repeat for O=C1Nc2cn(C3CCOCC3)nc2C(=O)NCC(O)COc2ccc(=O)n(n2)Cc2cccc1c2 (stereo not drawn) [Compound 11] and report
< 100 nM
